Target chain: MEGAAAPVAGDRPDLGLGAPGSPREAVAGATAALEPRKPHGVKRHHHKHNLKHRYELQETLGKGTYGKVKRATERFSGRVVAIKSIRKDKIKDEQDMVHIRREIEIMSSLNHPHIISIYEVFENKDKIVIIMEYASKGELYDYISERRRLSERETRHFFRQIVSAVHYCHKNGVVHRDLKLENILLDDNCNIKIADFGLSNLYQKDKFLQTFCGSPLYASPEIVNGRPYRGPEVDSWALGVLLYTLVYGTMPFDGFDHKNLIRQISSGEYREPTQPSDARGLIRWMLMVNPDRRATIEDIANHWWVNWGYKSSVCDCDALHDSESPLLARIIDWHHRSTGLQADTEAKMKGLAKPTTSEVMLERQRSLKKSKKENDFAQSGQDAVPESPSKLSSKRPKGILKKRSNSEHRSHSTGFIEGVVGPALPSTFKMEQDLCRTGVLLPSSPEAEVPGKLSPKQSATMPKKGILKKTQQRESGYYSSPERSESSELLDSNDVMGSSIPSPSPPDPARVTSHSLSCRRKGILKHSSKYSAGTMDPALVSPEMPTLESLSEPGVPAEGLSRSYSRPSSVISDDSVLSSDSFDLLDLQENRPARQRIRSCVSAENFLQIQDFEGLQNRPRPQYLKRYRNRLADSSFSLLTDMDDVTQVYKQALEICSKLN
Parameter: IC50. Scope: all listed entries.

These recorded examples may help you get a feel for the data.
Check the records and state IC50 for O=C1NCc2cccc(Nc3nc(Nc4ccc(N5C[C@H]6CC[C@@H](C5)N6)cc4OC(F)F)ncc3C(F)(F)F)c21 [Compound I-59]
11 to 100 nM

Tell us which IC50 value is on record for COc1c(Nc2ncc(C(F)(F)F)c(Nc3cccc4c3C(=O)NC4)n2)ccc(N2CCC(N3CCNCC3)CC2)c1F [Compound I-39]
11 to 100 nM

Give IC50 for the following compound: O=C1NCc2cccc(Nc3nc(Nc4ccc(N5CCNCC5)cc4OC(F)F)ncc3Cl)c21 [Compound I-24]
11 to 100 nM

Quickly give me recorded IC50 for O=C1NCc2cccc(Nc3nc(Nc4ccc(N5C[C@H]6C[C@@H]5CN6)cc4OC(F)F)ncc3C(F)(F)F)c21 [Compound I-71]
11 to 100 nM

Identify the reported IC50 for the following entry. COc1cc(N2CCN(C)CC2)ccc1Nc1ncc(Cl)c(Nc2cccc3c2C(=O)NC3)n1 [Compound I-5]
11 to 100 nM

Give the measured IC50 for COc1cc2c(cc1Nc1ncc(Cl)c(Nc3cccc4c3C(=O)NC4)n1)CCN(CCC(F)(F)F)C2 [Compound I-19]
101 to 1000 nM

Determine its reported IC50: O=C1NCc2cccc(Nc3nc(Nc4ccc(N5CCCNCC5)cc4OC(F)F)ncc3Cl)c21 [Compound I-74]
11 to 100 nM

Please report the measured IC50 for COc1cc2c(cc1Nc1ncc(C(F)(F)F)c(Nc3cccc4c3C(=O)NC4)n1)CCNC2 [Compound I-27]
11 to 100 nM

Then there is this compound:
Hello, please tell me recorded IC50 for this one: CN1CCN(c2ccc(Nc3ncc(Cl)c(Nc4cccc5c4C(=O)NC5)n3)c(C(F)(F)F)c2)CC1 [Compound I-8]
101 to 1000 nM

* * *

Target: NUAK2 (h) (Homo sapiens, UniProt Q9H093)
Construct: This assay was done radiometrically using full-length, recombinant enzyme
Sequence (Q9H093 1-628): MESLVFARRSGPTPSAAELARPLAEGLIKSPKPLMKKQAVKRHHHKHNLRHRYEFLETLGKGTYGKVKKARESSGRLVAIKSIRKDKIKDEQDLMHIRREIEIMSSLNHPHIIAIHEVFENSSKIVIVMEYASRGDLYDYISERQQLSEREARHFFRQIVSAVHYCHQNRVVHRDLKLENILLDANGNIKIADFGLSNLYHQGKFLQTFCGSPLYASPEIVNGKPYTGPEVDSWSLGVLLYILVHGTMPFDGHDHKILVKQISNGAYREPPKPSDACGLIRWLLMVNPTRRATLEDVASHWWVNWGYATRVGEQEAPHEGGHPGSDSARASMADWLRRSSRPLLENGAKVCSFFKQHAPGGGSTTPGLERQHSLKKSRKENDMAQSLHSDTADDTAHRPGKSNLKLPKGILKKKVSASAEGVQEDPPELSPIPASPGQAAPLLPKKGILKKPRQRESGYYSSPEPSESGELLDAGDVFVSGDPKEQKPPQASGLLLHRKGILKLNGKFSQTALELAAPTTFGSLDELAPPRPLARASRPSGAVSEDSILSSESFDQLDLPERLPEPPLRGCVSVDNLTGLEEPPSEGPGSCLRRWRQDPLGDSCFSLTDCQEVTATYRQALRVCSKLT
Assay: NUAK2 enzymatic assay (radiometric, Eurofins)
Conditions: full-length recombinant enzyme
Protocol: To identify small molecule NUAK inhibitors, a biochemical NUAK2 enzymatic assay were outsourced to Eurofins. This assay was done radiometrically using full-length, recombinant enzyme. NUAK2 (h) was incubated with 8 mM MOPS pH 7.0, 0.2 mM EDTA, 300 μM […], 10 mM magnesium acetate and […] (specific activity and concentration as required). The reaction was initiated by the addition of the Mg/ATP mix. […]
The entries below are paired with their reported IC50.

Provide one value: measured IC50 of CCN1CCN(c2ccc(Nc3ncc(Cl)c(Nc4cccc5c4C(=O)NC5)n3)cc2F)CC1
0.1 to 10 nM

Look up IC50 of O=C1NCc2cccc(Nc3nc(Nc4ccc(N5C[C@@H]6C[C@H]5CN6)cc4OC(F)F)ncc3C(F)(F)F)c21 and report it.
0.1 to 10 nM

Please give the documented IC50 of COc1cc2c(cc1Nc1ncc(Cl)c(Nc3cccc4c3C(=O)NC4)n1)CCNC2
11 to 100 nM

Then there is this compound:
State its IC50 for this compound: CN1CCN(c2ccc(Nc3ncc(C(F)(F)F)c(Nc4cccc5c4C(=O)NC5)n3)c(Cl)c2F)CC1
11 to 100 nM
